experiment: Metabolic stability in human hepatic microsome; type: in vitro ADME; conditions: human, microsomes, pH 7.4, CL NADPH(+)
Starred links: 1 amine or outer side, 2 acyl side, 3 side chain; linkers in the order of their positions; H or OH if unused. Positions of bridges follow the written chain, without caps; N, C: chain ends. Non-standard residues stand in square brackets, D forms with d. Residues, ends and D or L forms follow the SMILES beside them. *: point of attachment. NMeF = CN[C@@H](Cc1ccccc1)C(=O)O; NMeI = CC[C@H](C)[C@H](NC)C(=O)O; NMeβAla = CN(CCC(=O)[*:2])[*:1]; NMeL = CN[C@@H](CC(C)C)C(=O)O; NMeV = CN[C@H](C(=O)O)C(C)C; NMeA = CN[C@@H](C)C(=O)O; Piperidide = C1CCN(*)CC1; dNMeA = CN[C@H](C)C(=O)O
endpoint: microsomal CLint at 1 uM (µL/min/mg)
Field format: number, assumed µL/min/mg, no unit text.

1. CC(C)C[C@H]1C(=O)N[C@@H]([C@@H](C)O)C(=O)N(C)[C@@H](Cc2ccccc2)C(=O)N(C)[C@@H](CC(C)C)C(=O)NCC(=O)N(C)[C@@H](C(C)C)C(=O)N[C@@H](Cc2ccccc2)C(=O)N[C@H](C(=O)N(C)[C@@H](Cc2ccccc2)C(=O)N[C@@H](C)C(=O)N2CCCCC2)CC(=O)N(C)[C@H](C)C(=O)N[C@@H](C(C)C)C(=O)N1C [DP-301] ([dNMeA]V[NMeL]T[NMeF][NMeL]G[NMeV]FD[NMeF]A-Piperidide; lactam N-10); 184

Below: the item to evaluate.
Entry under test: CC[C@H](C)[C@H]1C(=O)NCC(=O)N(C)[C@@H](Cc2ccccc2)C(=O)N[C@@H]([C@@H](C)O)C(=O)N(C)[C@@H](C)C(=O)N[C@@H](CC(C)C)C(=O)N[C@H](C(=O)N2CCCCC2)CC(=O)N(C)CCC(=O)N(C)[C@@H](C)C(=O)N[C@@H](Cc2ccccc2)C(=O)N[C@@H](C(C)C)C(=O)N(C)[C@@H](CC(C)C)C(=O)N1C [DP-59] ([NMeβAla][NMeA]FV[NMeL][NMeI]G[NMeF]T[NMeA]LD-Piperidide; lactam N-12) . Its microsomal CLint at 1 uM was 65

* * *

assay: PAMPA (parallel artificial membrane permeability assay); assay type: in vitro ADME; conditions: PAMPA; membrane permeation rate (Pe); 50 mM MOPSO buffer pH 6.5 with 5.0% glycocholic acid, 37° C., 18 hours; read-out: iPAMPA Pe
Starred links: 1 amine or outer side, 2 acyl side, 3 side chain; linkers in the order of their positions; H or OH if unused. Positions of bridges follow the written chain, without caps; N, C: chain ends. Non-standard residues stand in square brackets, D forms with d. Residues, ends and D or L forms follow the SMILES beside them. *: point of attachment. Phe(4-(CH2)5CO) = O=C([C@H](Cc1ccc(CCCCCC(=O)[*:3])cc1)N[*:1])[*:2]; Lys(Me2) = CN(C)CCCC[C@H](N)C(=O)O; NMeF = CN[C@@H](Cc1ccccc1)C(=O)O; NMeI = CC[C@H](C)[C@H](NC)C(=O)O; NMeβAla = CN(CCC(=O)[*:2])[*:1]; NMeL = CN[C@@H](CC(C)C)C(=O)O; NMeV = CN[C@H](C(=O)O)C(C)C; NMeA = CN[C@@H](C)C(=O)O; Piperidide = C1CCN(*)CC1; dNMeA = CN[C@H](C)C(=O)O; NPrGly = CCCNCC(=O)O; Sar = CNCC(=O)O; tBu = CC(C)(C)*
Papp at 18 hours, 50 µM values, listed per item
Units required after the number.

See these solved cases before continuing.
1) CC(C)C[C@H]1C(=O)N[C@H](C(=O)N(C)[C@@H](Cc2ccccc2)C(=O)N(C)[C@@H](Cc2ccccc2)C(=O)N[C@@H](C)C(=O)N2CCCCC2)CC(=O)N(C)CCC(=O)N[C@@H](C)C(=O)N(C)[C@@H](Cc2ccccc2)C(=O)N(C)[C@@H](C(C)C)C(=O)NCC(=O)N[C@@H]([C@@H](C)O)C(=O)N(C)[C@@H](C)C(=O)N[C@@H](C(C)C)C(=O)N1C [DP-391] ([NMeβAla]A[NMeF][NMeV]GT[NMeA]V[NMeL]D[NMeF][NMeF]A-Piperidide; lactam N-10); 4.5 ×10⁻⁶ cm/s
2) CC(C)C[C@H]1C(=O)N(C)[C@@H](Cc2ccccc2)C(=O)N[C@H](C(=O)N2CCCCC2)CC(=O)N[C@H](C(C)C)C(=O)N[C@@H](C)C(=O)N[C@@H]([C@@H](C)O)C(=O)N(C)[C@@H](C)C(=O)N[C@@H](Cc2ccccc2)C(=O)N1C [DP-526] ([dV]AT[NMeA]F[NMeL][NMeF]D-Piperidide; lactam N-8); 14 ×10⁻⁶ cm/s
3) CC[C@H](C)[C@@H]1NC(=O)[C@H](C)NC(=O)C[C@@H](C(=O)N(C)[C@@H](Cc2ccccc2)C(=O)N(C)[C@@H](Cc2ccccc2)C(=O)N[C@@H](C)C(=O)N2CCCCC2)NC(=O)[C@H](C)NC(=O)[C@H](C)N(C)C(=O)[C@H](CC(C)C)N(C)C(=O)CN(C)C(=O)[C@H]([C@@H](C)O)NC(=O)[C@H](C(C)C)N(C)C(=O)[C@H](Cc2ccccc2)N(C)C1=O [DP-389] (AI[NMeF][NMeV]T[Sar][NMeL][NMeA]AD[NMeF][NMeF]A-Piperidide; lactam N-10); 15 ×10⁻⁶ cm/s
4) CC(C)C[C@@H]1NC(=O)CCCCCc2ccc(cc2)C[C@@H](C(=O)N2CCCCC2)NC(=O)[C@H](Cc2ccccc2)N(C)C(=O)[C@H](CC(C)C)N(C)C(=O)CN(C)C(=O)[C@H]([C@@H](C)O)NC(=O)[C@H](C)N(C)C(=O)[C@H](C(C)C)N(C)C(=O)[C@H](C)NC(=O)[C@H](CC(C)C)N(C)C(=O)[C@H](Cc2ccccc2)N(C)C1=O [DP-881] (L[NMeF][NMeL]A[NMeV][NMeA]T[Sar][NMeL][NMeF][Phe(4-(CH2)5CO)]-Piperidide; lactam N-11); 6.8 ×10⁻⁶ cm/s

Entry under test: CC(C)C[C@H]1C(=O)N[C@H](C(=O)N2CCCCC2)CC(=O)N(C)[C@@H](C)C(=O)N(C)[C@@H](Cc2ccccc2)C(=O)N(C)[C@@H](CC(C)C)C(=O)N[C@@H]([C@@H](C)O)C(=O)N(C)CC(=O)N1C [DP-533] ([NMeA][NMeF][NMeL]T[Sar][NMeL]D-Piperidide; lactam N-7) . Its Papp at 18 hours, 50 µM was 10 ×10⁻⁶ cm/s

Entry under test: CC(C)C[C@H]1C(=O)N[C@H](C(=O)N2CCCCC2)CC(=O)N(C)[C@H](C)C(=O)N(C)[C@@H](CC(C)C)C(=O)N[C@@H]([C@@H](C)O)C(=O)N(C)[C@@H](CC(C)C)C(=O)N[C@@H](COC(C)(C)C)C(=O)N1C [DP-725] ([dNMeA][NMeL]T[NMeL]S(tBu)[NMeL]D-Piperidide; lactam N-7) . Its Papp at 18 hours, 50 µM was 35 ×10⁻⁶ cm/s

Entry under test: CCCN1CC(=O)N(C)[C@@H](Cc2ccccc2)C(=O)N[C@@H](C)C(=O)N(C)[C@@H](Cc2ccccc2)C(=O)N(C)[C@@H](CC(C)C)C(=O)N(C)[C@@H]([C@@H](C)CC)C(=O)N(C)[C@@H](CC(C)C)C(=O)N[C@H](C(=O)N2CCCCC2)CC(=O)N(C)CC(=O)N[C@@H](CC(C)C)C(=O)N[C@@H]([C@@H](C)O)C1=O [DP-545] ([Sar]LT[NPrGly][NMeF]A[NMeF][NMeL][NMeI][NMeL]D-Piperidide; lactam N-11) . Its Papp at 18 hours, 50 µM was 40 ×10⁻⁶ cm/s

Entry under test: CC(C)C[C@@H]1NC(=O)CN(C)C(=O)[C@H](CCCCN(C)C)NC(=O)[C@H](CC(C)C)N(C)C(=O)[C@H](Cc2ccccc2)N(C)C(=O)[C@H](C)N(C)C(=O)[C@@H](C(C)C)NC(=O)C[C@@H](C(=O)N(C)[C@@H](Cc2ccccc2)C(=O)N[C@@H](C)C(=O)N2CCCCC2)NC(=O)[C@H](CC(C)C)N(C)C(=O)[C@H](CC(C)C)N(C)C1=O [DP-587] ([dV][NMeA][NMeF][NMeL][Lys(Me2)][Sar]L[NMeL][NMeL]D[NMeF]A-Piperidide; lactam N-10) . Its Papp at 18 hours, 50 µM was 3.3 ×10⁻⁶ cm/s

Entry under test: CC(C)C[C@@H]1NC(=O)[C@H](Cc2ccccc2)N(C)C(=O)CN(C)C(=O)[C@H]([C@@H](C)O)NC(=O)[C@H](CC(C)C)N(C)C(=O)[C@H](C)NC(=O)C[C@@H](C(=O)N(C)[C@@H](CC(C)C)C(=O)N[C@H](C(=O)N(C)[C@@H](C)C(=O)N[C@@H](C)C(=O)N2CCCCC2)C(C)C)NC1=O [DP-566] (A[NMeL]T[Sar][NMeF]LD[NMeL]V[NMeA]A-Piperidide; lactam N-7) . Its Papp at 18 hours, 50 µM was 11 ×10⁻⁶ cm/s

Entry under test: CC(C)[C@@H]1NC(=O)[C@H](C)N(C)C(=O)[C@H](C)N(C)C(=O)[C@H](Cc2ccccc2)N(C)C(=O)CNC(=O)[C@H]([C@@H](C)O)NC(=O)[C@H](C(C)C)N(C)C(=O)[C@H](C)NC(=O)[C@H](C)N(C)C(=O)C[C@@H](C(=O)N(C)[C@@H](Cc2ccccc2)C(=O)N(C)[C@@H](Cc2ccccc2)C(=O)N[C@@H](C)C(=O)N2CCCCC2)NC1=O [DP-457] ([NMeA]A[NMeV]TG[NMeF][NMeA][NMeA]VD[NMeF][NMeF]A-Piperidide; lactam N-10) . Its Papp at 18 hours, 50 µM was 10 ×10⁻⁶ cm/s
